Exercise: state measured growth for each of the molecules provided.
system: RPMI-8226 leukemia; assay: NCI-60 one-dose screen, 48 h (100 = growth as untreated, 0 = no growth, -100 = all killed); conditions: 10 µM unless noted
The panel holds about 83,000 compounds, 20% with a hit somewhere; the sample as a whole holds those more often.
The reply should be a number in %, with the unit left off.

Reported RPMI-8226 leukemia growth for item COc1cccc2cc(N(C)c3nc(C)nc4c3CCC4)ccc12 was 29.2

Reported RPMI-8226 leukemia growth for item COC(=O)[C@@H](Cc1c[nH]c2ccccc12)NC[C@@H](O)CN1C(=O)/C(=C\c2cc(OC)c(OC)c(OC)c2)c2ccccc21 was 6.06

Reported RPMI-8226 leukemia growth for item CCOC(=O)CC1C(CNC(=O)NC)OC(n2cnc3c(NC(=O)Nc4ccccc4)ncnc32)C1O[Si](C)(C)C(C)(C)C (centres undefined) was 11.2

Reported RPMI-8226 leukemia growth for item Nc1ncc(-c2ccc3ncnc(N4CCc5ccc(Cl)cc54)c3c2)cn1 was -35.6

Reported RPMI-8226 leukemia growth for item CCCCCCCCCCCCCC[n+]1ccc2c(C)c3c(c(C)c2c1)c1cc(O)ccc1n3CC was -51.5

Reported RPMI-8226 leukemia growth for item O=C(O)/C=C/c1cn(-c2ccccc2)nc1-c1ccc(F)cc1 was 97.4

Reported RPMI-8226 leukemia growth for item Cn1cc(-c2nc(-c3c[nH]c4ccncc34)cs2)c2cc(F)ccc21 was -36.5

Reported RPMI-8226 leukemia growth for item FC(F)(F)c1cc(N2CCCCC2)nc(NCCCNc2ccnc3cc(Cl)ccc23)n1 was 39.9

Reported RPMI-8226 leukemia growth for item CCOC(=O)/C(=C\c1ccccc1Cl)P(=O)(OCC)OCC was 7.93

The reported numbers originate from PubChem BioAssay (NCI).
